Measured values drawn from paper PMC8767786 for this set.

Molecular target: TRPM5 (Danio rerio, UniProt S5UH55)
Sequence (S5UH55 1-1165): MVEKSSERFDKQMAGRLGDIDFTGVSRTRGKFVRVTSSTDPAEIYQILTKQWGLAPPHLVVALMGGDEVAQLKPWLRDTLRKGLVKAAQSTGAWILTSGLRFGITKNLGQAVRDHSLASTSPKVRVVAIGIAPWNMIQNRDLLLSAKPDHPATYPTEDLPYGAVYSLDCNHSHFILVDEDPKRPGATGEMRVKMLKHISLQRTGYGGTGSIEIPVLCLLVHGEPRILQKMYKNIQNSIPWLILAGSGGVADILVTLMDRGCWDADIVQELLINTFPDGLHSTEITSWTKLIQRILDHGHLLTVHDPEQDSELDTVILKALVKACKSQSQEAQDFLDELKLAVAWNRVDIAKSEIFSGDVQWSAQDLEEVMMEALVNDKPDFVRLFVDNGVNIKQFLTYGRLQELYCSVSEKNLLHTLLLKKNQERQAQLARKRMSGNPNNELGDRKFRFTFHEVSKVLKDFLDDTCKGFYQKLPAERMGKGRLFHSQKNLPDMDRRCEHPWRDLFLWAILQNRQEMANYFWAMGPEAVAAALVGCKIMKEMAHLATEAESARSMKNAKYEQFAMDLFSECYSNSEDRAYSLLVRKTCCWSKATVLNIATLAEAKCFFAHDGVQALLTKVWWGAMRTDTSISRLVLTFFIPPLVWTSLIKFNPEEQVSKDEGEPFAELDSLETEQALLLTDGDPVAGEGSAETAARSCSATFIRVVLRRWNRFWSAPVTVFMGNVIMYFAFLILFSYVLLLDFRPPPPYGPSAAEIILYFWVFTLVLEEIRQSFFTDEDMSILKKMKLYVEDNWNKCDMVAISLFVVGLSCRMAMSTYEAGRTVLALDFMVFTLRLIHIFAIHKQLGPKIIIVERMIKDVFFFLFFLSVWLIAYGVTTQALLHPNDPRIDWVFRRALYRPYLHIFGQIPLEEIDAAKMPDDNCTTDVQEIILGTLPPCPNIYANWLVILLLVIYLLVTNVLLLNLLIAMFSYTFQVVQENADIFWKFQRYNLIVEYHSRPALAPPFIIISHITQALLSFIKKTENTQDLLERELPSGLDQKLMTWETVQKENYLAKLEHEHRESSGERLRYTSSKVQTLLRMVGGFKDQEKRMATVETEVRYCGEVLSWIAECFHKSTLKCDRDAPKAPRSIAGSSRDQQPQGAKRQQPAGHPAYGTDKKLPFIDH
Experiment: cryo-EM structure
Observed Property: IC50

Exercise: Which IC50 value belongs to COc1ccc(C=NNC(=O)Cc2cccc3ccccc23)cc1OC ?
Key: ~2.4 nM
